system: SR; test: NCI tumour cell line growth inhibition, 48 h
Calls of active or inactive are those of the source. Rule as the data show it: active = GI50 up to about 1.1 µM and inactive = higher.
Below, each entry is listed alongside its reported GI50.
Property: GI50

[[record]]
compound = "C=C(CCCO)[C@@H]1CC[C@@](C)(O)[C@H]1C"
target_or_system = "SR"
property = "GI50"
observed_result = "> 100 µM (inactive)"

[[record]]
compound = "CC(=O)Nc1ccc(-c2nnc(SCC(=O)Nc3ccc([N+](=O)[O-])cc3)o2)cc1"
target_or_system = "SR"
property = "GI50"
observed_result = "3.18 µM (inactive)"

[[record]]
compound = "C/C=C/C=C/C1=NN(c2cccc(S(=O)(=O)O)c2)C2(C1)SCC(=O)N2c1nc2ccccc2s1 (stereo unspecified)"
target_or_system = "SR"
property = "GI50"
observed_result = "25.1 µM (inactive)"

[[record]]
compound = "OCCCc1cnco1"
target_or_system = "SR"
property = "GI50"
observed_result = "> 100 µM (inactive)"

[[record]]
compound = "COc1ccc(C(=O)O/N=C2/CCC/C2=C\\c2ccccc2)cc1"
target_or_system = "SR"
property = "GI50"
observed_result = "> 100 µM (inactive)"

[[record]]
compound = "COc1ccc(C(c2cc3c(cc2O)OCO3)N2CCOCC2)cc1OC (stereo unspecified)"
target_or_system = "SR"
property = "GI50"
observed_result = "1.89 µM (inactive)"

[[record]]
compound = "Cc1cc(S(=O)(=O)Nc2nc(N)nc(N(C)C)n2)c(S)cc1Cl"
target_or_system = "SR"
property = "GI50"
observed_result = "> 10 µM (inactive)"

[[record]]
compound = "O=C1Nc2ccccc2/C1=N/N1C(=O)/C(=C/c2ccccc2S)N=C1c1ccccc1"
target_or_system = "SR"
property = "GI50"
observed_result = "21.3 µM (inactive)"

[[record]]
compound = "CCOC(=O)c1nc2ccccc2nc1NCc1ccc(Cl)cc1Cl"
target_or_system = "SR"
property = "GI50"
observed_result = "60.7 µM (inactive)"

[[record]]
compound = "COC(=O)C1=C(SC)SC2(C(=O)OC)C3C=C(C)C4C(N13)C42C(=O)OC (stereo unspecified)"
target_or_system = "SR"
property = "GI50"
observed_result = "> 100 µM (inactive)"

[[record]]
compound = "CC(=O)OC12c3ccccc3C1CCCCCC21OCCCO1 (stereo unspecified)"
target_or_system = "SR"
property = "GI50"
observed_result = "> 100 µM (inactive)"

